Here, each record is paired with measured inhibition data.
- Protocol Summary: NOD1 signaling inhibitors, primary screen, cell-based, luminescence, uHTS (AID 1578);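 further: HEK-293T reporter cells stimulated with the NOD1 agonist gamma-tri-DAP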
- Experimental Context: NOD1-driven NF-kB luciferase reporter cells, at 4 µM, stronger effect = higher value
Screen size: about 290,000 compounds; about 3,000 (1%) were called active. What follows is part of a selection rich in actives, with near analogues and random picks from the rest.
Please give a number only; it is taken to be in %.

Asked: Bench note: what inhibition did COc1ccc(N2CCN(C(c3ccccc3OC)c3nnnn3C3CCCC3)CC2)cc1 (stereo unspecified) show?
Given back: -19.3

###

- Protocol Summary: NOD1 signaling inhibitors, primary screen, cell-based, luminescence, uHTS (AID 1578);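 further: HEK-293T reporter cells stimulated with the NOD1 agonist gamma-tri-DAP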
- Experimental Context: NOD1-driven NF-kB luciferase reporter cells, at 4 µM, stronger effect = higher value
The campaign covered roughly 290,000 compounds. About 3,000 (1%) were called active. For the sample, actives were picked, then their nearest neighbours and some compounds at random.
Metric Name: inhibition (%)
Please give a number only; it is taken to be in %.

Asked: Bench note: what inhibition did O=S(=O)(c1ccc(F)cc1)N1CCn2c(nc3ccccc32)C1 show?
Given back: -11.7

***
Asked: Bench note: what inhibition did O=C(NC(=S)Nc1cccc2[nH]ncc12)c1ccccc1 show?
Given back: 68.4

Asked: Next: Cc1ccccc1NC(=O)CSc1ccc(-c2cccnc2)nn1
Given back: -33.1

Asked: Next: Cc1cc2cc(C)c(NCCNC(=O)c3ccccc3Cl)nc2cc1C
Given back: -21.1

Asked: Next: O=C(Nc1cccc2[nH]ncc12)c1ccc(F)cc1
Given back: -0.2

Asked: Next: CNC(=S)Nc1cccc2[nH]ncc12
Given back: -6.5

Asked: Next: CCOC(=O)C1CCN(C(=O)CCc2ccc(S(=O)(=O)NC(C)C)cc2)CC1
Given back: -6.7

Asked: Next: O=c1c2[nH]c3ccc(F)cc3c2ncn1CCN1CCOCC1
Given back: -10.5

Asked: Next: CCOC(=O)c1ccccc1NC(=O)CSc1ccc(-c2cccnc2)nn1
Given back: 59.2

The values you see were collected from PubChem BioAssay AID1578.
